Reference source for all entries: patent US11919887B2

Target: human Nav 1.8 (Homo sapiens)
Sequence (Q9Y5Y9 whole entry, looked up, the tested form may be a part): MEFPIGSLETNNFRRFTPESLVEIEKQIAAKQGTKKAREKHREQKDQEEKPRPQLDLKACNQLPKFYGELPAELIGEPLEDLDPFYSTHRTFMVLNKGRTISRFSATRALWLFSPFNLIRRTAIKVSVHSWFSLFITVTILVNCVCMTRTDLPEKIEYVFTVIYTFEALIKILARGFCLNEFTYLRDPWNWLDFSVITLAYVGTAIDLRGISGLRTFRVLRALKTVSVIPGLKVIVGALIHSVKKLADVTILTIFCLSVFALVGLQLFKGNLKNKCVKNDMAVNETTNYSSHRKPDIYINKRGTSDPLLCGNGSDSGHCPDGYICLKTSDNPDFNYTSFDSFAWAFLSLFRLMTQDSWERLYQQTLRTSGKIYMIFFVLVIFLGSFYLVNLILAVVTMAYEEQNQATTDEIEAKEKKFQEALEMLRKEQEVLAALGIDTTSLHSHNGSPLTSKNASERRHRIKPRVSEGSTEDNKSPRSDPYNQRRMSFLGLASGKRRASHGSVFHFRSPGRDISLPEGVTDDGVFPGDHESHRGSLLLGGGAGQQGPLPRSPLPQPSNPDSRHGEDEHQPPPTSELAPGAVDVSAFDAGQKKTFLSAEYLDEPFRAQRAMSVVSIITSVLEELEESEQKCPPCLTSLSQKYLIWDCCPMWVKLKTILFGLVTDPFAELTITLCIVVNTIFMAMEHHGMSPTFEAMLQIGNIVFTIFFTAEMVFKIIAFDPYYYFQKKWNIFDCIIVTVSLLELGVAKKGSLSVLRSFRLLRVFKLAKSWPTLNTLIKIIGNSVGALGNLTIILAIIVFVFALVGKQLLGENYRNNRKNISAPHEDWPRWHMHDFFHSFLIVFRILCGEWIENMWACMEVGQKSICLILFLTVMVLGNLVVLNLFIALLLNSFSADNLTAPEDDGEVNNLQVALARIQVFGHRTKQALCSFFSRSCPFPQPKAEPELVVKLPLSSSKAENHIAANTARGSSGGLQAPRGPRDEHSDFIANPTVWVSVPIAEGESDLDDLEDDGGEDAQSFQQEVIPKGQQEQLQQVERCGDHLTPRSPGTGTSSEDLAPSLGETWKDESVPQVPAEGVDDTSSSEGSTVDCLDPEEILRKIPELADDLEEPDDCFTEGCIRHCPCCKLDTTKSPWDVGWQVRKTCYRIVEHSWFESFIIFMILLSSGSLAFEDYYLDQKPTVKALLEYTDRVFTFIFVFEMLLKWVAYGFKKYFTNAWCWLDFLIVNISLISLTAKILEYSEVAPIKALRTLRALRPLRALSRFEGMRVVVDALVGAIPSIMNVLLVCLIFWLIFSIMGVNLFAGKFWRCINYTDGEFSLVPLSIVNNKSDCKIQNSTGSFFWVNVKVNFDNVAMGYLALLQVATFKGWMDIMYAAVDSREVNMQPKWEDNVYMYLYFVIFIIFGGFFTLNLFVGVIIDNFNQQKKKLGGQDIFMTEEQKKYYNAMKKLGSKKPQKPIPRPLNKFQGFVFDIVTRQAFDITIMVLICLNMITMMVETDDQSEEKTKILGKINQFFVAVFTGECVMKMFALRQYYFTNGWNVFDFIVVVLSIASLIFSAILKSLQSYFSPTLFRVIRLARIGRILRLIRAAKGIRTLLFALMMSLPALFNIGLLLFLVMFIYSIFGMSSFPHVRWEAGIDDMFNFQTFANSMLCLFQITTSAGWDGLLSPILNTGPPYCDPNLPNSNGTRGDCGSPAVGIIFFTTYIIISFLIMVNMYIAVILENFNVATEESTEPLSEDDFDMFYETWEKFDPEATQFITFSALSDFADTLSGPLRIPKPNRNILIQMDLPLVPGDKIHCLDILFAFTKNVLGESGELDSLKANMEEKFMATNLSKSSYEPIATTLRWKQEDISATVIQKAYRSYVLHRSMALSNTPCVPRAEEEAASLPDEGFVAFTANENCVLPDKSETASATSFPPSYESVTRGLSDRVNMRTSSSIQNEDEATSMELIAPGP
Experiment: E-VIPR assay detecting and measuring Nav inhibition (HEK cells expressing truncated human Nav 1.8)
Assay type: cell-based
Conditions: in the Presence of Human Serum in the E-VIPR Assay; read-out: IC50
Listed molecules paired with reported IC50
reported-endpoint: IC50

>>> value_reported("CNC(=O)c1cc(NC(=O)[C@H]2O[C@](C)(C(F)(F)F)[C@H](C)[C@@H]2c2ccc(F)cc2OC(F)F)ccn1 (single isomer, unassigned)")
"> 1000 nM"
>>> value_reported("C[C@H]1[C@@H](c2ccc(F)c(F)c2O)[C@H](C(=O)Nc2ccnc(C(N)=O)c2)O[C@@]1(C)C(F)(F)F")
"10 to 100 nM"
>>> value_reported("COc1c([C@@H]2[C@@H](C(=O)Nc3ccnc(C(N)=O)c3)OC(C)(C)[C@H]2C)ccc(F)c1F (single isomer, unassigned) [Compound 101]")
"> 1000 nM"
>>> value_reported("COc1nc(C(F)(F)F)ccc1[C@@H]1[C@@H](C(=O)Nc2ccnc(C(N)=O)c2)O[C@](C)(C(F)(F)F)[C@@H]1C (stereo in doubt)")
"> 1000 nM"
>>> value_reported("COc1c([C@H]2C[C@](C)(C(F)(F)F)O[C@@H]2C(=O)Nc2ccnc(C(N)=O)c2)ccc(F)c1Cl")
"> 1000 nM"
>>> value_reported("CNC(=O)c1cc(NC(=O)[C@@H]2O[C@@](C)(C(F)(F)F)C[C@H]2c2ccc(F)c(Cl)c2OC)ccn1 (single isomer, unassigned)")
"10 to 100 nM"
>>> value_reported("C[C@@H]1[C@H](c2ccc(F)cc2OC(F)F)[C@@H](C(=O)Nc2ccc(F)c(C(N)=O)c2)O[C@]1(C)C(F)(F)F (single isomer, unassigned)")
"> 1000 nM"
>>> value_reported("COc1c([C@H]2C[C@@H](C(C)(C)C)O[C@@H]2C(=O)Nc2ccnc(C(N)=O)c2)ccc(F)c1F (single isomer, unassigned)")
"> 1000 nM"
>>> value_reported("C[C@H]1[C@@H](c2ccc(F)c(F)c2OC(F)F)[C@H](C(=O)Nc2ccnc(C(N)=O)c2)O[C@@]1(C)C(F)(F)F (racemic) [Compound 115]")
"< 10 nM"
>>> value_reported("COc1c([C@@H]2[C@@H](C(=O)Nc3ccnc(C(N)=O)c3)O[C@](C)(C(F)(F)F)[C@@H]2C)ccc(F)c1C(F)F (single isomer, unassigned)")
"10 to 100 nM"
>>> value_reported("COc1c([C@H]2C[C@@](C)(C(F)(F)F)O[C@@H]2C(=O)Nc2ccnc(C(N)=O)c2)ccc(F)c1Cl (relative stereo) [Compound 20]")
"> 1000 nM"
>>> value_reported("COc1c([C@@H]2[C@H](C)[C@H](C(C)C)O[C@H]2C(=O)Nc2ccnc(C(N)=O)c2)ccc(F)c1F")
"10 to 100 nM"
